- target_or_system: KpPriB (Klebsiella pneumoniae, UniProt A6THB2 1-104)
- Sequence (A6THB2 whole entry): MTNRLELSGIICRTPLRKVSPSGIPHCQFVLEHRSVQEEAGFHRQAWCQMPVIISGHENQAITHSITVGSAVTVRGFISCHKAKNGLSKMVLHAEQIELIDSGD
- procedure_details: EMSA; monomer conc.; 1 complex; EMSA: 20 mM Tris-HCl pH 8.0, 100 mM NaCl, 25 C, 30 min, 1.7 nM 32P-ssDNA; 8% native PAGE in TBE at 4 C
- test_settings: protein: recombinant; tags: none (tag-free); chain copies: 2; label: 5'-32P
readout_name: apparent K (half saturation) (µM)

INSERT INTO measurements (binder, value_reported) VALUES
  ('TTTTTTTTTTTTTTTTTTTTTTTTTTTTTTTTTTTTTTTT (ssDNA) [dT40]', 9.1),
  ('TTTTTTTTTTTTTTTTTTTTTTTTT (ssDNA) [dT25]', 14.1),
  ('dT60 (ssDNA) DNA: TTTTTTTTTTTTTTTTTTTTTTTTTTTTTTTTTTTTTTTTTTTTTTTTTTTTTTTTTTTT', 4.8),
  ('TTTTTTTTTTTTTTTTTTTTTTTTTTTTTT (ssDNA) [dT30]', 9.2),
  ('TTTTTTTTTTTTTTTTTTTTTTTTTTTTTTTTTTTTTTTTTTTTTTTTTT (ssDNA) [dT50]', 5.6),
  ('dT55 (ssDNA) DNA: TTTTTTTTTTTTTTTTTTTTTTTTTTTTTTTTTTTTTTTTTTTTTTTTTTTTTTT', 4.9);
